Here the recorded PBM binding z-score is given for each entry.
test system: LXRb homodimer (NR concentration 270 nM); assay: PBM binding z-score (relative to random genomic background probes); higher = stronger binding; sequences stand for … in GC…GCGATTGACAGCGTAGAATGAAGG
Reply: number alone, nothing else.

Illustrative cases are given below, each with its answer.
sequence-text	PBM binding z-score
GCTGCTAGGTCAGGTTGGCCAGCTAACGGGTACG	-0.715
CCTGCTGGGTCATGGTCAGCTAATCTACAGTATG	-0.697
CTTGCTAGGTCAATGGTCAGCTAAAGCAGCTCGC	-0.0348
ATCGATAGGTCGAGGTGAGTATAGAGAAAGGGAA	-0.118
CCTAGTTGGTCAGGAGGTCACACAGCGGATATGA	0.887

Prompt: Write down the reported PBM binding z-score of CCTGCTAGGTCATGGTCATCTAATCTACAGTATG , test system: LXRb homodimer (NR concentration 270 nM).
Response: -0.408

Prompt: Write down the reported PBM binding z-score of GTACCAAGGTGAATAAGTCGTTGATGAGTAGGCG , test system: LXRb homodimer (NR concentration 270 nM).
Response: -0.489

Prompt: Write down the reported PBM binding z-score of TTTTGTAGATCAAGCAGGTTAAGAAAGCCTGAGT , test system: LXRb homodimer (NR concentration 270 nM).
Response: -0.0652

Prompt: Write down the reported PBM binding z-score of CGTACTGGGCCACGAAAGGTCATTGATTCAGTGA , test system: LXRb homodimer (NR concentration 270 nM).
Response: 0.336

Prompt: Write down the reported PBM binding z-score of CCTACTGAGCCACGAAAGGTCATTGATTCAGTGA , test system: LXRb homodimer (NR concentration 270 nM).
Response: 1.09
